Answer each item with its documented pIC50.
# Tested on: PMA-differentiated THP-1 cells
# Method Summary: IL-1β production in PMA-differentiated THP-1 cells stimulated with gramicidin (hTHP-1 assay containing 2% fetal bovine serum; Procedures 1 and 2)
# Type: cell-based, human
# Condition Description: Table B3; hTHP-1 assay, 2% fetal bovine serum; class symbols; read-out: IC50
pIC50: −log10 of the molar value.

Problem: What value of pIC50 has been recorded for this entry: CCc1c(C(F)(F)F)nc2c(c1NC(=O)N=S(N)(=O)c1nn(C(F)F)cc1F)CCC2 (single isomer, unassigned) [Example 709]
Result: 5.30 to 6.00

Problem: Give the measured pIC50 of CCc1ncc(S(N)(=O)=NC(=O)Nc2c3c(nc4c2CC[C@H]4C)CCC3)s1 (single isomer, unassigned) [Example 674] .
Result: 6.00 to 6.70

Problem: Field request: pIC50 | item: CCn1cc(F)c(S(N)(=O)=NC(=O)Nc2c3c(nc4c2CCC42CC2)CCC3)n1 (single isomer, unassigned) [Example 672]
Result: 5.30 to 6.00

Problem: Request the reported pIC50 associated with NS(=O)(=NC(=O)Nc1c2c(nc3c1CCC31CC1)CCC2)c1nn(C(F)F)cc1F (single isomer, unassigned) [Example 681]
Result: 6.70 to 7.40

Problem: Using the record for Cc1c(C(F)(F)F)nc2c(c1NC(=O)N=S(N)(=O)c1cnc(C(C)(C)O)s1)CCC2C (single isomer, unassigned) [Example 704] , report its pIC50.
Result: 6.00 to 6.70

Problem: Give its pIC50 value. Item: CC(C)(O)c1csc(S(N)(=O)=NC(=O)Nc2c3c(nc(C(F)(F)F)c2C2CC2)CCC3)c1 (single isomer, unassigned) [Example 645]
Result: 4.52 to 5.30

Problem: Name the reported pIC50 value associated with the molecule CCn1cc(F)c(S(N)(=O)=NC(=O)Nc2c(C)c(C(F)(F)F)nc3c2CCC3)n1 (single isomer, unassigned) [Example 650]
Result: 5.30 to 6.00

Problem: Give the measured pIC50 of NS(=O)(=NC(=O)Nc1c2c(nc(C(F)(F)F)c1C1CC1)CCC2)c1nn(C(F)F)cc1F (stereo not drawn) .
Result: 6.00 to 6.70

Problem: Please look up its pIC50: CCn1cc(F)c(S(N)(=O)=NC(=O)Nc2c(C)c(C3CC3)nc3c2CCC3)n1 (single isomer, unassigned) [Example 713]
Result: 6.70 to 7.40

Problem: Item under review: Cc1c(C(F)(F)F)nc2c(c1NC(=O)N=S(N)(=O)c1nn(C(F)F)cc1F)CCC2 (single isomer, unassigned) [Example 563] . Reported pIC50?
Result: 4.52 to 5.30

Problem: Report pIC50 for Cc1c(C(F)(F)F)nc2c(c1NC(=O)N=S(N)(=O)c1cnc(C(C)(C)O)s1)CCC2C (single isomer, unassigned) [Example 703] please.
Result: 5.30 to 6.00

Problem: I have this molecule here, CC(C)(O)c1cc(F)c(S(N)(=O)=NC(=O)Nc2c3c(nc(C(F)(F)F)c2C2CC2)CCC3)s1 (single isomer, unassigned) [Example 660] , and I need its recorded pIC50.
Result: 4.52 to 5.30

Problem: Requested field: pIC50. Item: CC(=O)c1csc(S(N)(=O)=NC(=O)Nc2c3c(nc4c2CC[C@H]4C)CCC3)c1 (single isomer, unassigned) [Example 665]
Result: 6.00 to 6.70

Problem: Return reported pIC50; argument: CC(C)(O)c1csc(S(N)(=O)=NC(=O)Nc2c3c(nc(C(F)(F)F)c2C2CC2)CCC3)c1 (single isomer, unassigned) [Example 646]
Result: 6.70 to 7.40

Problem: What value of pIC50 has been recorded for this entry: CCn1ccc(S(N)(=O)=NC(=O)Nc2c3c(nc4c2CCC42CC2)CCC3)n1 (single isomer, unassigned) [Example 688]
Result: 4.52 to 5.30

Problem: GET /values?readout=pIC50&item= CCc1c(C(F)(F)F)nc2c(c1NC(=O)N=S(N)(=O)c1nn(C(F)F)cc1F)CCC2 (single isomer, unassigned) [Example 710]
Result: 4.52 to 5.30

Problem: Given Cc1c(C(F)(F)F)nc2c(c1NC(=O)N=S(N)(=O)c1nn(C(F)F)cc1F)CCC2 (single isomer, unassigned) [Example 562] , state its recorded pIC50.
Result: 6.00 to 6.70

Problem: I'd like to know its pIC50. The molecule in question is CC(C)(O)c1cc(F)c(S(N)(=O)=NC(=O)Nc2c3c(nc(C(F)(F)F)c2C2CC2)CCC3)s1 (single isomer, unassigned) [Example 659]
Result: 6.00 to 6.70

Problem: Quick check: pIC50 of CCn1cc(F)c(S(N)(=O)=NC(=O)Nc2c3c(nc(C4CC4)c2C2CC2)CCC3)n1 (single isomer, unassigned) [Example 708] ?
Result: 4.52 to 5.30

Problem: Which pIC50 is listed for CCc1c(CC(F)(F)F)nc2c(c1NC(=O)N=S(N)(=O)c1sc(C(C)(C)O)cc1F)CCC2 (single isomer, unassigned) [Example 640] ?
Result: 4.52 to 5.30

Problem: Any idea what pIC50 was measured for CC1(C)CCc2c1nc1c(c2NC(=O)N=S(N)(=O)c2nn(C(F)F)cc2F)CCC1 (single isomer, unassigned) [Example 721] ?
Result: 6.70 to 7.40

Problem: What value of measured pIC50 is listed for CC1(C)CCc2c1nc1c(c2NC(=O)N=S(N)(=O)c2nn(C(F)F)cc2F)CCC1 (single isomer, unassigned) [Example 722] ?
Result: 5.30 to 6.00

Problem: What value of measured pIC50 is listed for NS(=O)(=NC(=O)Nc1c2c(nc3c1CCC31CC1)CCC2)c1ccn(CCO)n1 (single isomer, unassigned) [Example 647] ?
Result: 6.00 to 6.70

Problem: Query (molecule): CCn1ccc(S(N)(=O)=NC(=O)Nc2c3c(nc(C4CC4)c2C2CC2)CCC3)n1 (single isomer, unassigned) [Example 700] ; field requested: pIC50
Result: 4.52 to 5.30

Problem: Endpoint output: pIC50 of CCn1cc(F)c(S(N)(=O)=NC(=O)Nc2c(C)c(C3CC3)nc3c2CCC3)n1 (single isomer, unassigned) [Example 714] . Value?
Result: 5.30 to 6.00

Problem: Looking for the measured pIC50 of CCc1ncc(S(N)(=O)=NC(=O)Nc2c3c(nc4c2CC[C@H]4C)CCC3)s1 (single isomer, unassigned) [Example 673] , can you help?
Result: 4.52 to 5.30

Problem: # input molecule: CCc1c(CC(F)(F)F)nc2c(c1NC(=O)N=S(N)(=O)c1sc(C(C)(C)O)cc1F)CCC2 (single isomer, unassigned) [Example 639] ; wanted: its pIC50
Result: 6.00 to 6.70

###

# Test system: PMA-differentiated THP-1 cells
# Method Summary: hTHP-1 assay containing 10% fetal bovine serum (IL-1β production, Tables B5 and B6)
# Type: cell-based, human
# Condition Description: read-out: hTHP-1 IC50 in 10% FBS; hTHP-1 assay containing 10% fetal bovine serum; Table B5; listed as 796
pIC50: −log10 of the molar value.
Readout Kind: pIC50

Problem: Which pIC50 is reported for this compound? CCn1cc(F)c(S(N)(=O)=NC(=O)Nc2c(C)c(C(F)(F)F)nc3c2CC(C)C3)n1 (stereo not shown)
Result: 6.00 to 6.70

###

# System: PMA-differentiated THP-1 cells
# Method Summary: IL-1β production in PMA-differentiated THP-1 cells stimulated with gramicidin (hTHP-1 assay containing 2% fetal bovine serum; Procedures 1 and 2)
# Format: cell-based, human
# Condition Description: Homo sapiens, THP-1, read-out: hTHP-1 IC50 in 2% FBS, hTHP-1 assay containing 2% fetal bovine serum; Table B5
Readout Kind: IC50

Problem: Item under review: CC(C)n1cc(F)c(S(N)(=O)=NC(=O)Nc2c3c(nc4c2CCC42CC2)CCC3)n1 (stereo not drawn) [Compound 1102] . Reported IC50?
Result: 8 to 40 nM

Problem: What value of IC50 has been reported for the following compound? CC(C)n1cc(F)c(S(N)(=O)=NC(=O)Nc2c3c(nc(C(F)(F)F)c2C2CC2)CCC3)n1 (stereo not drawn) [Compound 1104]
Result: 200 to 1000 nM

Problem: IC50 lookup needed for CCn1cc(F)c(S(N)(=O)=NC(=O)Nc2c(C)c(C(F)(F)F)nc3c2CC(C)C3)n1 (single isomer, unassigned) [Compound 1101a] , thanks.
Result: 40 to 200 nM

Problem: Bench note: what IC50 did CC(C)n1cc(F)c(S(N)(=O)=NC(=O)Nc2c3c(nc(C4CC4)c2C2CC2)CCC3)n1 (stereo not drawn) [Compound 1103] show?
Result: 40 to 200 nM

Problem: For CCn1cc(F)c([S@](N)(=O)=NC(=O)Nc2c(C)c(C(F)(F)F)nc3c2[C@@H](C)CC3)n1 (single isomer, unassigned) [Compound 1100b] , what is its reported IC50?
Result: 200 to 1000 nM

Problem: Name the reported IC50 value associated with the compound CCn1cc(F)c([S@](N)(=O)=NC(=O)Nc2c(C)c(C(F)(F)F)nc3c2[C@H](C)CC3)n1 (single isomer, unassigned) [Compound 1100a]
Result: 5000 to 30000 nM
